Biological target: Muscarinic acetylcholine receptor M5 (Homo sapiens, UniProt P08912)
Sequence (P08912 whole entry): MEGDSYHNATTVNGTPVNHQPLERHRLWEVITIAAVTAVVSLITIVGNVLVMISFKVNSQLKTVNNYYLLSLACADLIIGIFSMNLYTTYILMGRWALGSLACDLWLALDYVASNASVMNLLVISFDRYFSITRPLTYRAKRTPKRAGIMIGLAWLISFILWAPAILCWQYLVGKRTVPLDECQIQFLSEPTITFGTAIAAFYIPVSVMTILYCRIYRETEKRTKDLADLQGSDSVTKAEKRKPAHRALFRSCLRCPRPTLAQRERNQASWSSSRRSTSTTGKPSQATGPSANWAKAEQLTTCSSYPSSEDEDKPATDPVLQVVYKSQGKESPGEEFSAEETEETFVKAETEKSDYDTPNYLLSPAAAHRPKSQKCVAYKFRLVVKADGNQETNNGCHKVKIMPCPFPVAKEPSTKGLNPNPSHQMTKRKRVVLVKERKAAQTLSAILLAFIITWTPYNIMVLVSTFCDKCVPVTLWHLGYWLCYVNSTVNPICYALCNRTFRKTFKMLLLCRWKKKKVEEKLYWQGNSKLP
VALUE TYPE: Ki (nM)

| MOLECULE | UNITS TEXT | Ki |
| --- | --- | --- |
| O=C(NC[C@@H]1CCCNC1)[C@H]1CCCN1C(=O)[C@@H]1C[C@@H](O)CN1C(=O)CC(c1ccc(Cl)cc1)(c1ccc(Cl)cc1)c1ccc(Cl)cc1 | nM | 2700 |
| O=C(NCC1CCN(C2CCCC2)CC1)[C@H]1CCCN1C(=O)[C@@H]1C[C@@H](O)CN1C(=O)CC(c1ccc(F)cc1)(c1ccc(F)cc1)c1ccc(F)cc1 | nM | 3200 |

[P] O=C(NCC1CCNCC1)[C@H]1CCCN1C(=O)[C@@H]1C[C@@H](O)CN1C(=O)CC(c1ccc(Cl)cc1)(c1ccc(Cl)cc1)c1ccc(Cl)cc1
[Q] O=C(NCC1CCN(CC2CCCC2)CC1)[C@H]1CCCN1C(=O)[C@@H]1C[C@@H](O)CN1C(=O)CC(c1ccc(F)cc1)(c1ccc(F)cc1)c1ccc(F)cc1
[R] O=C(NCC1CCN(CC2CC2)CC1)[C@H]1CCCN1C(=O)[C@@H]1C[C@@H](O)CN1C(=O)CC(c1ccc(F)cc1)(c1ccc(F)cc1)c1ccc(F)cc1
-- ask Reorder: Ki, max to min. # list labels per requested ordering
-- reply P, R, Q

The measurements presented in this section are drawn from ChEMBL document CHEMBL1148687.
